- tgt: 5-hydroxytryptamine receptor 5A (Homo sapiens)
- Sequence (P47898 whole entry): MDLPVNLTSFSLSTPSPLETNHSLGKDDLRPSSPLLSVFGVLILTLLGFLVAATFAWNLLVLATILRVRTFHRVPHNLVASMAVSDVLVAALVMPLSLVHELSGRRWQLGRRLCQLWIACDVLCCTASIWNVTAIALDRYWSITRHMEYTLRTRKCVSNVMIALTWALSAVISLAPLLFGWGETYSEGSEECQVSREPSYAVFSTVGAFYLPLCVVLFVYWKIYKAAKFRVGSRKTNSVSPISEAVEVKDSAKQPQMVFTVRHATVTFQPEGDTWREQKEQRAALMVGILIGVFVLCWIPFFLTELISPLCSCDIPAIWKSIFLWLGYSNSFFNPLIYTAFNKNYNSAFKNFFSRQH
- assay-overview: Displacement of [3H] LSD from human recombinant 5-HT5A receptor expressed in CHO-K1 cells incubated for 60 mins by spectrophotometric analysis
The following compounds are listed with their measured pIC50 values.
Scale for pIC50: -log10 of concentration given in mol/L; no unit attached.

>>> recorded_value("O=C(O)/C=C/C(=O)O.[2H]C([2H])(Cc1c[nH]c2ccccc12)N(C)C")
5.48

# query: pIC50 | item `CN(C)CCc1c[nH]c2ccccc12.O=C(O)/C=C/C(=O)O` | system: 5-hydroxytryptamine receptor 5A (Homo sapiens) 5.48

* * *

- tgt: Alpha-1A adrenergic receptor (Homo sapiens)
- Sequence (P35348 whole entry): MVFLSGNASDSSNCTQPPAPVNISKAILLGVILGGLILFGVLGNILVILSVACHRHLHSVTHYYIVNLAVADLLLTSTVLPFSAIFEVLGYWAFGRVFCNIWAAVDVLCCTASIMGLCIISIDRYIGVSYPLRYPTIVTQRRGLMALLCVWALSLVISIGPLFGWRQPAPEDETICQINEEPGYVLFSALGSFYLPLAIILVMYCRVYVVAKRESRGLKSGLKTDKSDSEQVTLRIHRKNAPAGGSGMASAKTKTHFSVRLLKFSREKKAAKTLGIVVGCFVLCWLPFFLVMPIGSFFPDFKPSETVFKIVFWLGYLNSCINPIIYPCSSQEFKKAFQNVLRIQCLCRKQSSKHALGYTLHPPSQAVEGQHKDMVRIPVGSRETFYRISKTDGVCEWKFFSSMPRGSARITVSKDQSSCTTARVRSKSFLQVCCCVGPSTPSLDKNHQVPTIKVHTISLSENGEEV
- assay-overview: Displacement of [3H] prazosin from human recombinant adrenergic alpha-1a receptor expressed in […] cells incubated for 60 mins by spectrophotometric analysis
Property: IC50; scope: individual molecules
Give the number; nM is assumed, so skip it.

>>> recorded_value("CN(C)CCc1c[nH]c2ccccc12.O=C(O)/C=C/C(=O)O")
580

Moving on to the next molecule.
# IC50 lookup, item `O=C(O)/C=C/C(=O)O.[2H]C([2H])(Cc1c[nH]c2ccccc12)N(C)C` 990

Hey, just so you know, these numbers are from ChEMBL document CHEMBL5370593.
